Kindly supply the reported IC50 values for the records listed here.
- TEST TARGET: full-length MALT1 protein His-MALT1(1-824) (Homo sapiens, UniProt Q9UDY8)
- Construct: full-length MALT1 protein His-MALT1(1-824); His (N); made in house; host or cells: baculovirus-infected insect cells
- PROTOCOL NOTES: MALT1 protease assay, Assay 1 (2 nM MALT1, Ac-LRSR-AMC substrate)
- Type: biochemical
- MEASUREMENT CONDITIONS: 2 nM MALT1, 50 μM Ac-LRSR-AMC, 2 h pre-incubation, 8 hr incubation at RT

Worked set:
INSERT INTO measurements (compound, test_target, reported_measurement) VALUES
  ('Cn1cnc(-c2ncc(NC(=O)[C@@H]3CC(C)(C)c4c3cnc3cc(Cl)nn43)cc2Cl)c1 (single isomer, unassigned) [Example 34]', 'full-length MALT1 protein His-MALT1(1-824) (Homo sapiens, UniProt Q9UDY8)', '≥ 1000 nM'),
  ('C[C@@]1(C(F)(F)F)C[C@@H](C(=O)Nc2cnc(-n3nccn3)c(Cl)c2)c2cnc3cc(Cl)nn3c21 (single isomer, unassigned) [Example 39]', 'full-length MALT1 protein His-MALT1(1-824) (Homo sapiens, UniProt Q9UDY8)', '10 to 100 nM'),
  ('CC1(C)CC(C(=O)Nc2cnc(-n3cc(C#N)cn3)c(Cl)c2)c2cnc3cc(Cl)nn3c21 (single isomer, unassigned) [Example 15]', 'full-length MALT1 protein His-MALT1(1-824) (Homo sapiens, UniProt Q9UDY8)', '100 to 1000 nM'),
  ('CC1(C)CC(C(=O)Nc2cnc(-n3nccn3)c(Cl)c2)c2cnc3cc(Cl)nn3c21 (single isomer, unassigned) [Example 1]', 'full-length MALT1 protein His-MALT1(1-824) (Homo sapiens, UniProt Q9UDY8)', '100 to 1000 nM'),
  ('CC1(C)C[C@@H](C(=O)Nc2cnc([C@H]3CCCO3)c(Cl)c2)c2cnc3cc(Cl)nn3c21 (single isomer, unassigned) [Example 27]', 'full-length MALT1 protein His-MALT1(1-824) (Homo sapiens, UniProt Q9UDY8)', '≥ 1000 nM');

Now for another entry.
Query: Can you look up the measured IC50 of CC1(C)C[C@@H](C(=O)Nc2cnc(N3CCCC3)c(Cl)c2)c2cnc3cc(Cl)nn3c21 (single isomer, unassigned) [Example 16] for me?
Response: ≥ 1000 nM

----------
- TEST TARGET: full-length MALT1 protein His-MALT1(1-824) (Homo sapiens, UniProt Q9UDY8)
- Construct: full-length MALT1 protein His-MALT1(1-824); His (N); made in house; host or cells: baculovirus-infected insect cells
- Sequence (Q9UDY8 1-824): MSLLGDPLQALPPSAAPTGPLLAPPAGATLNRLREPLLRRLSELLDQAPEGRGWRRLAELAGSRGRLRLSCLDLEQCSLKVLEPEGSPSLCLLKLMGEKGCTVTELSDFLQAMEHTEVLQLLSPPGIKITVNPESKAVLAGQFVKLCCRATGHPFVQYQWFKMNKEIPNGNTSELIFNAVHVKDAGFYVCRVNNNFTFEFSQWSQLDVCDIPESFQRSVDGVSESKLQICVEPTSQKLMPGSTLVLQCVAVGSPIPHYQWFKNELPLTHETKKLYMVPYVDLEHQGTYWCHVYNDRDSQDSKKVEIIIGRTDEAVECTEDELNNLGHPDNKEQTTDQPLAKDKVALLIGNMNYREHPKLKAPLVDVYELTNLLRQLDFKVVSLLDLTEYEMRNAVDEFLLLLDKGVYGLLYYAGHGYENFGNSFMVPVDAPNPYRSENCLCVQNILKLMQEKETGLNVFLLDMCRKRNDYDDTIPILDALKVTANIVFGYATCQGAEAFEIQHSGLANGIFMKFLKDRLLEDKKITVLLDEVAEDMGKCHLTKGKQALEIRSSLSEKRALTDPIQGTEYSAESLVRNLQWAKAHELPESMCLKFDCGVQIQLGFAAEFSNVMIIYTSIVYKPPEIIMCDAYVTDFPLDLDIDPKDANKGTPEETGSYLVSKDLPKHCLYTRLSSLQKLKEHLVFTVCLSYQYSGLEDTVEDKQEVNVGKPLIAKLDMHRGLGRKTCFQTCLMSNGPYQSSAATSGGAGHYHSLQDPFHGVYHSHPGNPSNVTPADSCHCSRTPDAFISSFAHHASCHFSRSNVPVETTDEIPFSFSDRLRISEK
- PROTOCOL NOTES: MALT1 protease assay, Assay 2 (1 nM MALT1, Ac-LRSR-AMC substrate)
- Format: biochemical
- MEASUREMENT CONDITIONS: 1 nM MALT1, 50 μM Ac-LRSR-AMC, 2 h pre-incubation, 8 hr incubation at RT
Kindly supply the reported IC50 values for the records listed here.

Worked set:
INSERT INTO measurements (compound, reported_measurement) VALUES
  ('Cn1nnc(-c2ncc(NC(=O)C3CC(C)(C)c4c3cnc3cc(Cl)nn43)cc2Cl)n1 (single isomer, unassigned) [Example 143]', '100 to 1000 nM'),
  ('CC1(C)CC(C(=O)Nc2ccnc(C(F)(F)F)c2)c2cnn3cc(C(F)F)nc3c21 (single isomer, unassigned) [Example 201]', '100 to 1000 nM');

Need IC50 for each of these compounds.
1. CC1(C)OC(C(=O)Nc2cnc(-n3nccn3)c(Cl)c2)c2cnc3cc(Cl)nn3c21 (single isomer, unassigned) [Example 70]
2. CC(C)(O)c1ncc(NC(=O)C2CC3(CCC3)c3c2cnc2cc(F)nn32)cc1C(F)(F)F (single isomer, unassigned) [Example 153]

Response:
1. ≥ 1000 nM
2. ≥ 1000 nM
